Test: Solubility in PBS buffet at pH 7.4 at 100 uM incubated for 18 hrs by UPLC-MS method
Format: physicochemical
Conditions: PBS buffer, pH 7.4
REPORTED_ENDPOINT: solubility at 18 h, 100 µM

Entry under review: `Cc1noc(C)c1NC(=O)Nc1ccc2c(c1)C(=O)N(C(C)C)C[C@@H](C)[C@H](CN(C)S(=O)(=O)c1ccc(F)cc1)OCCCC[C@H](C)O2` . Reported solubility at 18 h, 100 µM?
< 5 µM

----------
Provide the recorded solubility for the entries that follow.
Experiment: Solubility in PBS buffet at pH 7.4 at 100 uM incubated for 18 hrs by UPLC-MS method
Assay type: physicochemical
Settings: buffer, pH 7.4, 18 h, 100 µM

Entry under review: `COc1ccc(COC[C@H](C)N2C[C@@H](C)[C@H](CN(C)S(=O)(=O)c3ccc(F)cc3)OCCCC[C@H](C)Oc3cccnc3C2=O)cc1` . Reported solubility?
< 5 µM

Entry under review: `COc1ccc(COC[C@H](C)N2C[C@@H](C)[C@H](CN(C)S(=O)(=O)c3ccc(F)cc3)OCCCC[C@H](C)Oc3c(cnn3C)C2=O)cc1` . Reported solubility?
15 µM

Entry under review: `COc1ccc(COC[C@H](C)N2C[C@@H](C)[C@H](CN(C)S(=O)(=O)c3ccc(F)cc3)OCCCC[C@H](C)Oc3nccnc3C2=O)cc1` . Reported solubility?
< 5 µM

----------
Provide the recorded remaining at 1 h, 1 µM for the entries that follow.
Assay: Stability in mouse microsomes assessed as compound remaining at 1 uM after 1 hr at 37 degC by UPLC-MS method
Assay type: ADME, Microsome
Conditions: read-out: Stability
Number in %, nothing else.

Entry under review: `CNC[C@H](C)N1C[C@@H](C)[C@H](CN(C)S(=O)(=O)c2ccc(F)cc2)OCCCC[C@H](C)Oc2ccc(NC(=O)Nc3c(C)noc3C)cc2C1=O` . Reported remaining at 1 h, 1 µM?
51

Entry under review: `Cc1noc(C)c1NC(=O)Nc1ccc2c(c1)C(=O)N([C@@H](C)CN(C)C)C[C@@H](C)[C@H](CN(C)S(=O)(=O)c1ccc(F)cc1)OCCCC[C@H](C)O2` . Reported remaining at 1 h, 1 µM?
8

Entry under review: `Cc1noc(C)c1NC(=O)Nc1ccc2c(c1)C(=O)N([C@@H](C)C[N+](C)(C)[O-])C[C@@H](C)[C@H](CN(C)S(=O)(=O)c1ccc(F)cc1)OCCCC[C@H](C)O2` . Reported remaining at 1 h, 1 µM?
35

----------
Biological target: hERG (KCNH2) (Homo sapiens)
Sequence (Q12809 whole entry): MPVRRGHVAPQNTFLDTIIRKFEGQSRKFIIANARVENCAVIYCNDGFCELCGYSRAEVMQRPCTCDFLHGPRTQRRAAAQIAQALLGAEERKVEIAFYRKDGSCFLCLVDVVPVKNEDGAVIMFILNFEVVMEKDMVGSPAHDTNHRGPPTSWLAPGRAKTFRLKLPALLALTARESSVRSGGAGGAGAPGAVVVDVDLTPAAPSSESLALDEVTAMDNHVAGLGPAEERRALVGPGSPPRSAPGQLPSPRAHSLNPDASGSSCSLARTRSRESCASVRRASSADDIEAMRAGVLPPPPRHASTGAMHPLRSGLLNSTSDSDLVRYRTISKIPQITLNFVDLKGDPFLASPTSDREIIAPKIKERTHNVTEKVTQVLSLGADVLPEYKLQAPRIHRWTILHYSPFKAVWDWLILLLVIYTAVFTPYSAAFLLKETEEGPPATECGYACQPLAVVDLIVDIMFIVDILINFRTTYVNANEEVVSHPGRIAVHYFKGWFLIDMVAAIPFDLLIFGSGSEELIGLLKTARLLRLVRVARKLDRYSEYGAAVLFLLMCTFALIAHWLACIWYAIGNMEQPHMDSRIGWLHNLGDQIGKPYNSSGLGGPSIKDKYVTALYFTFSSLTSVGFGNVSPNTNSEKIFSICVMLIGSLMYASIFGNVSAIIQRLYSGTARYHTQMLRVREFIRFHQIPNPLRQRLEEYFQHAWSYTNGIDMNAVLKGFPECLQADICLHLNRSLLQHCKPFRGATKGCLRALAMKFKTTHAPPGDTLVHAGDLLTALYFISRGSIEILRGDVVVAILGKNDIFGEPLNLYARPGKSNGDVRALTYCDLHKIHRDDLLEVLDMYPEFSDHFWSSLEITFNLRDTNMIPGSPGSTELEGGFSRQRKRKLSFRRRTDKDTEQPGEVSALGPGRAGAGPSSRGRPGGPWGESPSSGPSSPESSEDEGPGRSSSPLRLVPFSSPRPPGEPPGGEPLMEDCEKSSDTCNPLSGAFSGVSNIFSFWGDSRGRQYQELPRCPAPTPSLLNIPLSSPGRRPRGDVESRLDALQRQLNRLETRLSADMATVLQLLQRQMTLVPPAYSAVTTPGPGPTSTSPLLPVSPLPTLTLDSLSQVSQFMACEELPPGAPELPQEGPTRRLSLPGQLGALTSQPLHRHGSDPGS
Test: Displacement of [3H]astemizole from human ERG expressed in HEK293 cell membranes at 10 uM incubated for 75 mins by scintillation counting method
Conditions: HEK293 cell membranes that express hERG, probe [3H]astemizole
Output Met for inhibition at 1.25 h, 10 µM not less than 10%; output Not met otherwise.

Check this molecule for inhibition at 1.25 h, 10 µM at or above 10%: `Cc1noc(C)c1NC(=O)Nc1ccc2c(c1)C(=O)N(C(C)C)C[C@@H](C)[C@H](CN(C)S(=O)(=O)c1ccc(F)cc1)OCCCC[C@H](C)O2`
Not met

Check this molecule for inhibition at 1.25 h, 10 µM at or above 10%: `Cc1noc(C)c1NC(=O)Nc1ccc2c(c1)C(=O)N([C@@H](C)CN1CCOCC1)C[C@@H](C)[C@H](CN(C)S(=O)(=O)c1ccc(F)cc1)OCCCC[C@H](C)O2`
Not met

Check this molecule for inhibition at 1.25 h, 10 µM at or above 10%: `Cc1noc(C)c1NC(=O)Nc1ccc2c(c1)C(=O)N([C@@H](C)CN(C)C)C[C@@H](C)[C@H](CN(C)S(=O)(=O)c1ccc(F)cc1)OCCCC[C@H](C)O2`
Met

Check this molecule for inhibition at 1.25 h, 10 µM at or above 10%: `Cc1noc(C)c1NC(=O)Nc1ccc2c(c1)C(=O)N([C@@H](C)CNCC(F)(F)F)C[C@@H](C)[C@H](CN(C)S(=O)(=O)c1ccc(F)cc1)OCCCC[C@H](C)O2`
Met

Check this molecule for inhibition at 1.25 h, 10 µM at or above 10%: `C[C@@H]1CN([C@@H](C)CN(C)C)C(=O)c2cc(NC(=O)Nc3ccccc3)ccc2O[C@@H](C)CCCCO[C@H]1CN(C)S(=O)(=O)c1ccc(F)cc1`
Met

Check this molecule for inhibition at 1.25 h, 10 µM at or above 10%: `Cc1noc(C)c1NC(=O)Nc1ccc2c(c1)C(=O)N([C@@H](C)CO)C[C@@H](C)[C@H](CN(C)S(=O)(=O)c1ccc(F)cc1)OCCCC[C@H](C)O2`
Met

----------
Experiment: Lipophilicity, log D of the compound by HPLC method
Format: physicochemical
Provide the recorded logD for the entries that follow.
Answer field: number only, no words.

Entry under review: `Cc1noc(C)c1NC(=O)Nc1ccc2c(c1)C(=O)N([C@@H](C)CNCC(F)(F)F)C[C@@H](C)[C@H](CN(C)S(=O)(=O)c1ccc(F)cc1)OCCCC[C@H](C)O2` . Reported logD?
3.9

Entry under review: `CCN(CC)C[C@H](C)N1C[C@@H](C)[C@H](CN(C)S(=O)(=O)c2ccc(F)cc2)OCCCC[C@H](C)Oc2ccc(NC(=O)Nc3c(C)noc3C)cc2C1=O` . Reported logD?
3.1

Entry under review: `C[C@@H]1CN([C@@H](C)CN(C)C)C(=O)c2cc(NC(=O)NC3COC3)ccc2O[C@@H](C)CCCCO[C@H]1CN(C)S(=O)(=O)c1ccc(F)cc1` . Reported logD?
1.1

Entry under review: `C[C@@H]1CN([C@@H](C)CN(C)C)C(=O)c2cc(NC(=O)Nc3ccc(F)cc3)ccc2O[C@@H](C)CCCCO[C@H]1CN(C)S(=O)(=O)c1ccc(F)cc1` . Reported logD?
3.5

Entry under review: `Cc1noc(C)c1NC(=O)Nc1ccc2c(c1)C(=O)N([C@@H](C)CNCC(C)(C)C)C[C@@H](C)[C@H](CN(C)S(=O)(=O)c1ccc(F)cc1)OCCCC[C@H](C)O2` . Reported logD?
3.8

Entry under review: `Cc1noc(C)c1NC(=O)Nc1ccc2c(c1)C(=O)N(C(C)C)C[C@@H](C)[C@H](CN(C)S(=O)(=O)c1ccc(F)cc1)OCCCC[C@H](C)O2` . Reported logD?
4

----------
Experiment: Lipophilicity, log D of the compound by HPLC method
Type: physicochemical
REPORTED_ENDPOINT: logD
Answer field: number only, no words.

Entry under review: `Cc1noc(C)c1NC(=O)Nc1ccc2c(c1)C(=O)N([C@@H](C)CN(C)C)C[C@@H](C)[C@H](CN(C)S(=O)(=O)c1ccc(F)cc1)OCCCC[C@H](C)O2` . Reported logD?
2.9

Entry under review: `Cc1noc(C)c1NC(=O)Nc1ccc2c(c1)C(=O)N([C@@H](C)CO)C[C@@H](C)[C@H](CN(C)S(=O)(=O)c1ccc(F)cc1)OCCCC[C@H](C)O2` . Reported logD?
2.9

Entry under review: `Cc1noc(C)c1NC(=O)Nc1ccc2c(c1)C(=O)N([C@@H](C)C[N+](C)(C)[O-])C[C@@H](C)[C@H](CN(C)S(=O)(=O)c1ccc(F)cc1)OCCCC[C@H](C)O2` . Reported logD?
1.5

Entry under review: `Cc1noc(C)c1NC(=O)Nc1ccc2c(c1)C(=O)N([C@@H](C)CN1CCOCC1)C[C@@H](C)[C@H](CN(C)S(=O)(=O)c1ccc(F)cc1)OCCCC[C@H](C)O2` . Reported logD?
3.5

Entry under review: `CNC[C@H](C)N1C[C@@H](C)[C@H](CN(C)S(=O)(=O)c2ccc(F)cc2)OCCCC[C@H](C)Oc2ccc(NC(=O)Nc3c(C)noc3C)cc2C1=O` . Reported logD?
1.7

Entry under review: `C[C@@H]1CN([C@@H](C)CN(C)C)C(=O)c2cc(NC(=O)Nc3ccccc3)ccc2O[C@@H](C)CCCCO[C@H]1CN(C)S(=O)(=O)c1ccc(F)cc1` . Reported logD?
4.1

----------
Assay: Stability in mouse microsomes assessed as compound remaining at 1 uM after 1 hr at 37 degC by UPLC-MS method
Format: ADME, Microsome
Conditions: read-out: Stability
So basically: is remaining at 1 h, 1 µM under 8%? Then Met. Not under? Then Not met.

I wonder whether `Cc1noc(C)c1NC(=O)Nc1ccc2c(c1)C(=O)N([C@@H](C)CNCC(C)(C)C)C[C@@H](C)[C@H](CN(C)S(=O)(=O)c1ccc(F)cc1)OCCCC[C@H](C)O2` has remaining at 1 h, 1 µM below 8%. Can you tell?
Met

I wonder whether `Cc1noc(C)c1NC(=O)Nc1ccc2c(c1)C(=O)N([C@@H](C)CO)C[C@@H](C)[C@H](CN(C)S(=O)(=O)c1ccc(F)cc1)OCCCC[C@H](C)O2` has remaining at 1 h, 1 µM below 8%. Can you tell?
Met

I wonder whether `CNC[C@H](C)N1C[C@@H](C)[C@H](CN(C)S(=O)(=O)c2ccc(F)cc2)OCCCCOc2ccc(NC(=O)Nc3c(C)noc3C)cc2C1=O` has remaining at 1 h, 1 µM below 8%. Can you tell?
Not met

I wonder whether `COc1ccc(COC[C@H](C)N2C[C@@H](C)[C@H](CN(C)S(=O)(=O)c3ccc(F)cc3)OCCCCOc3ccc(NC(=O)Nc4c(C)noc4C)cc3C2=O)cc1` has remaining at 1 h, 1 µM below 8%. Can you tell?
Not met

I wonder whether `Cc1noc(C)c1NC(=O)Nc1ccc2c(c1)C(=O)N([C@@H](C)CN(C)C)C[C@@H](C)[C@H](CN(C)S(=O)(=O)c1ccc(F)cc1)OCCCCO2` has remaining at 1 h, 1 µM below 8%. Can you tell?
Not met

I wonder whether `Cc1noc(C)c1NC(=O)Nc1ccc2c(c1)C(=O)N([C@@H](C)CN(C)C)CC[C@H](CN(C)S(=O)(=O)c1ccc(F)cc1)OCCCC[C@H](C)O2` has remaining at 1 h, 1 µM below 8%. Can you tell?
Met

I wonder whether `Cc1noc(C)c1NC(=O)Nc1ccc2c(c1)C(=O)N([C@@H](C)CN1CCOCC1)C[C@@H](C)[C@H](CN(C)S(=O)(=O)c1ccc(F)cc1)OCCCC[C@H](C)O2` has remaining at 1 h, 1 µM below 8%. Can you tell?
Met

I wonder whether `C[C@@H]1CN([C@@H](C)CN(C)C)C(=O)c2cccnc2O[C@@H](C)CCCCO[C@H]1CN(C)S(=O)(=O)c1ccc(F)cc1` has remaining at 1 h, 1 µM below 8%. Can you tell?
Met

I wonder whether `CCN(CC)C[C@H](C)N1C[C@@H](C)[C@H](CN(C)S(=O)(=O)c2ccc(F)cc2)OCCCC[C@H](C)Oc2ccc(NC(=O)Nc3c(C)noc3C)cc2C1=O` has remaining at 1 h, 1 µM below 8%. Can you tell?
Met

I wonder whether `Cc1noc(C)c1NC(=O)Nc1ccc2c(c1)C(=O)N([C@@H](C)CNCC(F)(F)F)C[C@@H](C)[C@H](CN(C)S(=O)(=O)c1ccc(F)cc1)OCCCC[C@H](C)O2` has remaining at 1 h, 1 µM below 8%. Can you tell?
Met

I wonder whether `C[C@@H]1CN([C@@H](C)CN(C)C)C(=O)c2cc(NC(=O)Nc3ccc(F)cc3)ccc2O[C@@H](C)CCCCO[C@H]1CN(C)S(=O)(=O)c1ccc(F)cc1` has remaining at 1 h, 1 µM below 8%. Can you tell?
Met

Just for reference, ChEMBL document CHEMBL3351611 is where these values come from.
